# PROCEDURE_DETAILS: Mouse pharmacokinetic test
# Format: in vivo, ICR mice
# APPLIED_CONDITIONS: plasma, po, 30 mg/kg, PO-30mpk
In plain terms, low Cmax, meaning strictly below 20000 ng/mL, gives 1 (yes), and everything else gives 0 (no).

Worked examples follow.
[
  {
    "GIVEN_SMILES": "CC(C)(c1ccc(-c2ccc(OCc3ccnc(C4CN(S(C)(=O)=O)C4)n3)cc2)cc1)c1cc(Cl)c(OCCCl)c(C#N)c1",
    "CATEGORY": "1 (yes)"
  },
  {
    "GIVEN_SMILES": "CC(C)(c1ccc(-c2ccc(OCc3ccnc(N4CC5(CCS(=N)(=O)CC5)C4)n3)cc2)cc1)c1cc(Cl)c(OCCCl)c(C#N)c1",
    "CATEGORY": "1 (yes)"
  },
  {
    "GIVEN_SMILES": "CC(C)(c1ccc(-c2ccc(OCc3ccnc(P(C)(C)=O)n3)c(F)c2)cc1)c1cc(Cl)c(OCCCl)c(C#N)c1",
    "CATEGORY": "1 (yes)"
  },
  {
    "GIVEN_SMILES": "CC(C)(c1ccc(-c2ccc(Oc3ccnc(P(C)(C)=O)n3)cc2)cc1)c1cc(Cl)c(OCCCl)c(C#N)c1",
    "CATEGORY": "0 (no)"
  },
  {
    "GIVEN_SMILES": "CC(C)(c1ccc(-c2ccc(OCc3ccnc(N4CC(NS(C)(=O)=O)C4)n3)cc2)cc1)c1cc(Cl)c(OCCCl)c(C#N)c1",
    "CATEGORY": "1 (yes)"
  }
]

API: the following record is the query input.
Enquiry: A record lists `CC(C)(c1ccc(-c2ccc(OCc3ccnc(P(C)(C)=O)n3)nc2)cc1)c1cc(Cl)c(OCCCl)c(C#N)c1` . Is its Cmax below 20000 ng/mL?
Return: 0 (no)

* * *

# TEST_SYSTEM: CYP2C9 (Homo sapiens, UniProt P11712)
# Construct: co-incubated with human liver microsomes; from tissue; host or cells: human liver microsomes
# Sequence (P11712 whole entry): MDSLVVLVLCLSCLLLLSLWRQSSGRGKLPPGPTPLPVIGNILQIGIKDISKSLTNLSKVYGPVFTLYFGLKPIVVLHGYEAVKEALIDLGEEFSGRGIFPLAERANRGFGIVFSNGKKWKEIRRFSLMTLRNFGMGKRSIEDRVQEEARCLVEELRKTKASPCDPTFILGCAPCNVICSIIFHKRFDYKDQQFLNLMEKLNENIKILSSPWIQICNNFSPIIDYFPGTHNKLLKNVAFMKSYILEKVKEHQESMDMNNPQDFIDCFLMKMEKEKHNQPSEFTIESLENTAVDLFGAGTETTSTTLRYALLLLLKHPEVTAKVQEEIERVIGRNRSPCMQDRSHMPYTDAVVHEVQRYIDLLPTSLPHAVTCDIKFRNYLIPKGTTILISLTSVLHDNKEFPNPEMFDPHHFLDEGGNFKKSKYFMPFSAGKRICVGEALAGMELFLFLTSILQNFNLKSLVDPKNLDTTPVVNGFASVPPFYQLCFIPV
# PROCEDURE_DETAILS: CYP inhibition assay in human liver microsomes
# Format: in vitro ADME
RECORDED_ENDPOINT: IC50

Enquiry: Which IC50 reading was recorded for the compound `CC(C)(c1ccc(-c2ccc3oc(-c4ccnc(P(C)(C)=O)n4)c(N)c3c2)cc1)c1cc(Cl)c(OCCCl)c(C#N)c1` ?
Return: > 10 µM

* * *

# PROCEDURE_DETAILS: Mouse pharmacokinetic test
# Assay type: in vivo, ICR mice
# APPLIED_CONDITIONS: plasma, 0.5 mg/kg, IV-0.5mpk
# Lookup of reported C0 keyed by entry
# number only, unit ng/mL dropped from output

Consider the worked cases shown below.
[
  {
    "COMPOUND": "CC(C)(c1ccc(-c2ccc(OCc3ccnc(N4CC(S(C)(=O)=O)C4)n3)nc2)cc1)c1cc(Cl)c(OCCCl)c(C#N)c1 [Compound 207]",
    "VALUE_MEASURED": 1620
  },
  {
    "COMPOUND": "CC(C)(c1ccc(-c2ccc3oc(-c4ccnc(P(C)(C)=O)n4)c(N)c3c2)cc1)c1cc(Cl)c(OCCCl)c(C#N)c1 [Compound 56]",
    "VALUE_MEASURED": 6190
  },
  {
    "COMPOUND": "CC(C)(c1ccc(-c2ccc(OCc3ccnc(P(C)(C)=O)n3)cc2)cc1)c1cc(Cl)c(OCCCl)c(C#N)c1 [Compound 2]",
    "VALUE_MEASURED": 1200
  },
  {
    "COMPOUND": "CC(C)(c1ccc(-c2ccc(OCc3ccnc(N4CC(S(C)(=O)=O)C4)n3)cc2)cc1)c1cc(Cl)c(OCCCl)c(C#N)c1 [Compound 53]",
    "VALUE_MEASURED": 2100
  }
]

Enquiry: So what's the measured C0 for this one? CC(C)(c1ccc(-c2ccc(OCc3ccc(-c4cnc(P(C)(C)=O)nc4)cc3)cc2)cc1)c1cc(Cl)c(OCCCl)c(C#N)c1 [Compound 136]
Return: 3730

Enquiry: Again, but for CC(C)(c1ccc(-c2ccc(C#Cc3cnc(P(C)(C)=O)nc3)cc2)cc1)c1cc(Cl)c(OCCCl)c(C#N)c1 [Compound 109]
Return: 1580
